- Test system: giant foxtail (Setaria faberi)
- test: Test G Post-Emergence Protocol
- Type: in vivo
- condition notes: Setaria faberi, post-emergence, 312 h, 62.5 g ai/ha, evaluated after 13 days, 100=total damage to plant, 0=no damage to plant, read-out: Foxtail, Giant damage rating
Listed below: pest or weed control at 62.5 g/ha values for each entry.
Supply the numeric figure in %, leaving out any unit text.

# annotated cases, reported pest or weed control at 62.5 g/ha shown
molecule	parameter	units label	value measured
CN1C[C@H](c2ccc(C(F)(F)F)cc2)[C@@H](C(=O)Nc2cccc3c2S(=O)(=O)CC3)C1=O (racemic)	pest or weed control at 62.5 g/ha	%	0
CON1C[C@@H](c2cccc(C(F)(F)F)c2)[C@H](C(=O)Nc2cccc(F)c2F)C1=O (racemic)	pest or weed control at 62.5 g/ha	%	60
CN1C[C@H](c2ccc(Cl)cc2)[C@@H](C(=O)Nc2ccc(F)nc2F)C1=O	pest or weed control at 62.5 g/ha	%	80
CCOc1cc([C@@H]2CN(C)C(=O)[C@H]2C(=O)Nc2cccc(F)c2C)ccc1C(F)(F)F (racemic)	pest or weed control at 62.5 g/ha	%	70
CN1C[C@@H](c2ccc(C(F)(F)F)cc2)[C@H](C(=O)Nc2ccnc(Cl)c2F)C1=O (racemic)	pest or weed control at 62.5 g/ha	%	30

Task: Please look up its pest or weed control at 62.5 g/ha: CN1C[C@H](c2ccc(C(F)(F)F)cc2)[C@@H](C(=O)Nc2cccnc2[S+](C)[O-])C1=O (mixture of isomers)
Result: 0

Task: Please look up its pest or weed control at 62.5 g/ha: COc1cc(Cl)cc(C2CN(C)C(=O)C2C(=O)Nc2cccc(F)c2F)c1 (centres unmarked)
Result: 80

Task: Please look up its pest or weed control at 62.5 g/ha: COc1cc(C2CN(C)C(=O)C2C(=O)Nc2cccc(F)c2F)cc(C)c1C (centres unmarked)
Result: 80

Task: Please look up its pest or weed control at 62.5 g/ha: CN1C[C@H](c2ccc(C(F)(F)F)cc2)[C@@H](C(=O)Nc2ccc[n+]([O-])c2F)C1=O (racemic)
Result: 0

Task: Please look up its pest or weed control at 62.5 g/ha: CN1C[C@H](c2ccc(C(F)(F)F)cc2)[C@@H](C(=O)Nc2cccnc2[N+](=O)[O-])C1=O (racemic)
Result: 0

Task: Please look up its pest or weed control at 62.5 g/ha: Cc1cc(C)cc([C@H]2CN(C)C(=O)[C@@H]2C(=O)Nc2ccccc2S(C)(=O)=O)c1 (racemic)
Result: 80

Task: Please look up its pest or weed control at 62.5 g/ha: CN1C[C@H](c2cc(C(C)(C)C)ncn2)[C@@H](C(=O)Nc2cccc(F)c2F)C1=O (racemic)
Result: 0

Task: Please look up its pest or weed control at 62.5 g/ha: Cc1cc([C@H]2CN(C)C(=O)[C@@H]2C(=O)Nc2cccc(F)c2F)cnn1 (racemic)
Result: 0

Task: Please look up its pest or weed control at 62.5 g/ha: CN1C[C@@H](c2ccc(C(F)(F)F)cc2)[C@H](C(=O)Nc2n[nH]cc2Cl)C1=O (racemic)
Result: 0

Task: Please look up its pest or weed control at 62.5 g/ha: CN1C[C@@H](c2ccc(C(F)(F)F)cc2)[C@H](C(=O)Nc2cncc(F)n2)C1=O (racemic)
Result: 40

Task: Please look up its pest or weed control at 62.5 g/ha: COc1cc(C2CN(C)C(=O)C2C(=O)Nc2cccc(F)c2F)cc(OC)c1F (centres unmarked)
Result: 80

Task: Please look up its pest or weed control at 62.5 g/ha: COc1ccc(C2CN(C)C(=O)C2C(=O)Nc2cccc(F)c2F)cc1C (centres unmarked)
Result: 80

---

- Tested on: barnyardgrass (Echinochloa crus-galli)
- test: Test G Pre-Emergence Protocol
- Type: in vivo
- condition notes: Echinochloa crus-galli, pre-emergence, 312 h, 15.625 g ai/ha, evaluated after 13 days, read-out: Barnyard grass damage rating (100=total damage to plant; 0=no damage to plant)
parameter: pest or weed control at 15.625 g/ha (%)
Supply the numeric figure in %, leaving out any unit text.

# annotated cases, reported pest or weed control at 15.625 g/ha shown
compound	units label	value measured
Cc1ccc([C@H]2CN(C)C(=O)[C@@H]2C(=O)Nc2ccc(F)nc2F)cc1 [Compound 1402]	%	80
CN1C[C@@H](c2ccc(C(F)(F)F)cc2)[C@H](C(=O)Nc2cc(F)nc(F)c2)C1=O (racemic) [Compound 1515]	%	0
CN1C[C@@H](c2ccc(C(F)(F)F)cc2)[C@H](C(=O)Nc2cccc(Cl)c2C#N)C1=O (racemic) [Compound 1645]	%	0
CN1C[C@@H](c2ccc(C(F)(F)F)cc2)[C@H](C(=O)Nc2cccc(F)n2)C1=O [Compound 1489]	%	0

Task: Please look up its pest or weed control at 15.625 g/ha: Cc1conc1NC(=O)[C@@H]1C(=O)N(C)C[C@H]1c1ccc(C(F)(F)F)cc1 (racemic) [Compound 1553]
Result: 0

Task: Please look up its pest or weed control at 15.625 g/ha: Cc1cc([C@@H]2CN(C)C(=O)[C@H]2C(=O)Nc2cccc(F)c2F)cc(Cl)n1 (racemic) [Compound 1481]
Result: 20

Task: Please look up its pest or weed control at 15.625 g/ha: CN1C[C@H](c2cccc(C#N)c2)[C@@H](C(=O)Nc2ccccc2F)C1=O (racemic) [Compound 1471]
Result: 10

Task: Please look up its pest or weed control at 15.625 g/ha: CSc1ccccc1NC(=O)[C@@H]1C(=O)N(C)C[C@H]1c1ccc(C(F)(F)F)nc1 (racemic) [Compound 1584]
Result: 0

Task: Please look up its pest or weed control at 15.625 g/ha: CN1C[C@H](c2ccc(C(F)(F)F)cc2)[C@@H](C(=O)Nc2cccc(C(F)F)c2)C1=O (racemic) [Compound 1498]
Result: 0

Task: Please look up its pest or weed control at 15.625 g/ha: CN1C[C@@H](c2ccc(C(F)(F)F)cc2)[C@@](O)(C(=O)Nc2cccc(F)c2F)C1=O (racemic) [Compound 1403]
Result: 0

---

- System: ryegrass, Italian (Italian ryegrass, Lolium multiflorum)
- test: Test A postemergence
- Assay type: in vivo
- condition notes: Lolium multiflorum, post-emergence, 240 h, 125 g ai/ha, postemergence; visual injury on 0 to 100 scale (0 no effect, 100 complete control), approx. 10 d; read-out: Ryegrass, Italian plant response rating
parameter: pest or weed control at 125 g/ha

# annotated cases, reported pest or weed control at 125 g/ha shown
compound	value measured
CC(C)COc1cccc([C@H]2CN(C)C(=O)[C@@H]2C(=O)Nc2ccc(F)cc2F)c1 [Compound 1030]	0%
Cc1c(F)cccc1NC(=O)[C@H]1C(=O)N(C)C[C@@H]1c1cc(C(F)F)cs1 [Compound 1089]	0%
CCc1cc(CC)cc([C@H]2CNC(=O)[C@@H]2C(=O)Nc2ccccc2F)c1 [Compound 1138]	0%
O=C1NC[C@H](c2ccc(F)c(OC(F)(F)C(F)F)c2)[C@H]1C(=O)Nc1ccccc1F [Compound 1133]	20%
CN1C[C@H](c2csc(C(F)F)c2)[C@@H](C(=O)Nc2cccc(F)c2F)C1=O [Compound 1122]	30%

Task: Give the reported pest or weed control at 125 g/ha for CC(C)Oc1ccc([C@H]2CNC(=O)[C@@H]2C(=O)Nc2ccccc2F)cc1 [Compound 1135] (system: ryegrass, Italian (Italian ryegrass, Lolium multiflorum)).
Result: 0%

Task: Give the reported pest or weed control at 125 g/ha for CCc1cccc([C@H]2CCNC(=O)[C@@H]2C(=O)Nc2cccc(F)c2F)c1 [Compound 1058] (system: ryegrass, Italian (Italian ryegrass, Lolium multiflorum)).
Result: 0%

Task: Give the reported pest or weed control at 125 g/ha for CN1C[C@H](c2csc(C(F)F)c2)[C@@H](C(=O)Nc2ccccc2F)C1=O [Compound 1123] (system: ryegrass, Italian (Italian ryegrass, Lolium multiflorum)).
Result: 30%

---

- System: giant foxtail (Setaria faberii)
- test: Test A postemergence
- Format: in vivo
- condition notes: Setaria faberi, post-emergence, 240 h, Postemergence, 500 g ai/ha; visual injury, 0 to 100 scale (0 no effect, 100 complete control), approx. 10 d; read-out: Plant response rating, Foxtail, Giant
parameter: pest or weed control at 500 g/ha (%)
Supply the numeric figure in %, leaving out any unit text.

# annotated cases, reported pest or weed control at 500 g/ha shown
structure smiles string	units label	pest or weed control at 500 g/ha
Cc1cc([C@H]2CN(C)C(=O)[C@@H]2C(=O)Nc2cccc(F)c2C)ccc1F	%	90
Cc1ccc([C@H]2CNC(=O)[C@@H]2C(=O)Nc2c(F)cccc2F)cc1C	%	30

Task: Please look up its pest or weed control at 500 g/ha: CN1C[C@H](c2cccc(C(C)(F)F)c2)[C@@H](C(=O)Nc2cccc(F)c2F)C1=O
Result: 90

Task: Please look up its pest or weed control at 500 g/ha: Cc1ccc([C@H]2CN(C)C(=O)[C@@H]2C(=O)Nc2ccccc2F)cc1Cl
Result: 90

Data provenance is patent US12077503B2.
